species: Rattus norvegicus; experiment: animal or person; details: read-out: Inhibition
reported.property: inhibition in vivo at 30 mg/kg (%)
Numeric only. Scale: %

Observe how each entry below is paired with its result.
{"structure": "NS(=O)(=O)c1ccc(C2=C(c3ccc(F)cc3)CCC2)cc1", "reported.property": "inhibition in vivo at 30 mg/kg", "endpoint.result": 45.3}
{"structure": "COc1ccc(C2=C(c3ccc(S(N)(=O)=O)cc3)CCC2)cc1", "reported.property": "inhibition in vivo at 30 mg/kg", "endpoint.result": 10}
{"structure": "CS(=O)(=O)c1ccc(C2=C(c3ccc(F)cc3)CCC2)cc1", "reported.property": "inhibition in vivo at 30 mg/kg", "endpoint.result": 45.3}
{"structure": "NS(=O)(=O)c1ccc(C2=C(c3ccc(F)c(Cl)c3)CCC2)cc1", "reported.property": "inhibition in vivo at 30 mg/kg", "endpoint.result": 43.3}

(Q) State the recorded inhibition in vivo at 30 mg/kg for this entry: NS(=O)(=O)c1ccc(C2=C(c3ccc(Cl)c(Cl)c3)CCC2)cc1
(A) 31

====

# inhibition in vivo at 30 mg/kg per record follows
species: Rattus norvegicus; experiment: animal or person; conditions: read-out: Inhibition
Field: numeric (%). Do not append units.

(Q) Any idea what its inhibition in vivo at 30 mg/kg is? The compound is COc1ccc(C2=C(c3ccc(S(N)(=O)=O)cc3)CCC2)cc1Cl
(A) 32

====

Target or system Prostaglandin G/H synthase 1 (Homo sapiens): recorded pIC50 listed per item.
The value called pIC50 is obtained by taking minus log10 of the concentration in mol/L.

{"structure": "COc1c(Cl)cc(C2=C(c3ccc(S(N)(=O)=O)cc3)CCC2)cc1Cl", "reported.property": "pIC50", "endpoint.result": 4.15}

(Q) For the compound CN(C)c1ccc(C2=C(c3ccc(S(C)(=O)=O)cc3)CCC2)cc1Cl , what pIC50 is on record?
(A) 4.42

(Q) Request the reported pIC50 associated with CN(C)c1ccc(C2=C(c3ccc(S(N)(=O)=O)cc3)CCC2)cc1Cl
(A) 5.74

(Q) Item under review: NS(=O)(=O)c1ccc(C2=C(c3ccc(F)c(Cl)c3)CCC2)cc1 . Reported pIC50?
(A) 5.29

(Q) Value lookup for pIC50; key = NS(=O)(=O)c1ccc(C2=C(c3ccc4c(c3)OCO4)CCC2)cc1
(A) 5.72

====

species: Rattus norvegicus; test: animal or person; settings: read-out: Inhibition
Recorded inhibition in vivo at 30 mg/kg, one value per entry.
Your answer is read as %, so omit the unit and give the number.

# count of solved cases: 2
{"structure": "CS(=O)(=O)c1ccc(C2=C(c3ccc(Cl)cc3)CCC2)cc1", "endpoint.result": 49}
{"structure": "CS(=O)(=O)c1ccc(C2=C(c3ccc(F)c(Cl)c3)CCC2)cc1", "endpoint.result": 40}

Let us examine a further case.
(Q) Tell me the measured inhibition in vivo at 30 mg/kg of COc1ccc(C2=C(c3ccc(S(C)(=O)=O)cc3)CCC2)cc1 , please.
(A) 42.7

====

pIC50: −log10 of the molar value.
The next entries give measured pIC50 for Prostaglandin G/H synthase 1 (Homo sapiens, UniProt P23219).

Answered examples (2):
{"structure": "COc1c(Cl)cc(C2=C(c3ccc(S(C)(=O)=O)cc3)CCC2)cc1Cl", "pIC50": "< 4.00"}
{"structure": "NS(=O)(=O)c1ccc(C2=C(c3cc(F)c(F)c(F)c3)CCC2)cc1", "pIC50": "< 4.00"}

As a next step, examine the compound that follows.
(Q) Notebook: pull reported pIC50 for Prostaglandin G/H synthase 1 (Homo sapiens, UniProt P23219), entry CS(=O)(=O)c1ccc(C2=C(c3ccc(C(F)(F)F)c(F)c3)CCC2)cc1
(A) < 4.00
